Value source: PubChem BioAssay (EPA / NIEHS)

Tgt: Androgen Receptor/SRC-1 Co-activator, AR (gene 367)
Assay Explanation: OT_AR_ARSRC1_0960: Odyssey Thera (OT) 16-hour HEK293T Protein-Complementation Assay for Androgen Receptor/SRC-1 Co-activator (AID 2283353);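 also: actives raise the signal above DMSO so potency reflects increased AR and SRC-1 complex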
The source made the active and inactive calls. The calls were made as follows: active = hit-call score of the fitted dose curve at least 0.9, where 1 is the maximum; inconclusive = response in the unintended direction; inactive = score below 0.9.
One label from this list, please: active, inactive

Use the examples below as a reference point.
{"columns": ["Compound", "Qualitative Label"],
 "data": [
  ["O=C(CCCCCCCCc1cccnc1)N1CCC(C=C(c2ccccc2)c2ccccc2)CC1", "active"],
  ["CCCCC(CC)COC(=O)c1ccc(C(=O)OCC(CC)CCCC)cc1 (stereo not given)", "inactive"],
  ["Oc1ccc2c(c1)-c1ccccc1C2", "active"],
  ["CC(C)=CCCC(C)CCO (stereo not given)", "inactive"],
  ["CCCN(C1CCN(C(=O)C2CCNCC2)CC1)[C@@H]1CCc2ccc(OC)cc2C1", "inactive"],
  ["CCCCCCc1ccc(O)cc1O", "active"]
]}

Prompt line: Please state the recorded outcome for this compound: Fc1ccccc1[C@@H](F)COC1CCC(Nc2ncnc3[nH]ncc23)CC1 (stereo not given in full)
Response line: active

Prompt line: Please state the recorded outcome for this compound: `CC1(C)C(=O)N(Br)C(=O)N1Br`
Response line: inactive

Prompt line: Please state the recorded outcome for this compound: CNS(=O)(=O)c1cc(C(=O)N2CCC(CCN3C4CCC3CC(n3c(C)nc5ccccc53)C4)(c3cccc(F)c3)CC2)c(Cl)cc1F (stereo not given)
Response line: active

Prompt line: Please state the recorded outcome for this compound: `CCOc1cccc(-n2cc(C(=O)N3CCN(c4cc(C(=O)O)c5ccccc5c4)CC3)nc2-c2ccc(C)cc2)c1`
Response line: active

---

Read-out: Monocyte Chemoattractant Protein-1 (MCP1), CCL2 (gene 6347)
Assay Explanation: BSK_CASM3C_MCP1: BioMAP Diversity Plus: CASM3C Assay for Monocyte Chemoattractant Protein-1 (MCP1) Biomarker Activity (AID 2283046);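 also: MCP-1 level quantified by ELISA 24 h after dosing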
Settings: primary human coronary artery smooth muscle cells; actives raise or lower the signal
Calls of active or inactive are those of the source. Rule for the calls: active = hit-call score of the fitted dose curve at least 0.9, where 1 is the maximum; inactive = score below 0.9.
One label from this list, please: active, inactive

Use the examples below as a reference point.
{"columns": ["Compound", "Qualitative Label"],
 "data": [
  ["CCCCC(CC)COC(=O)c1ccc(C(=O)OCC(CC)CCCC)cc1 (stereo unspecified)", "inactive"],
  ["CCc1cc(SCc2sc(-c3ccc(C(F)(F)F)cc3)nc2CN2CCN(c3ccc(OC)cc3)CC2)ccc1OCC(=O)O", "active"],
  ["CCOCCO", "inactive"],
  ["CC(=O)c1ccc2c(c1)[C@H](NC(=O)c1ccc(F)cc1)[C@@H](O)C(C)(C)O2", "inactive"],
  ["CC(C)=CCCC(C)CCO (stereo unspecified)", "inactive"]
]}

Prompt line: Please state the recorded outcome for this compound: O=C(O)CC(O)C(=O)O (stereo unspecified)
Response line: inactive

Prompt line: Please state the recorded outcome for this compound: `CC(=O)OC[C@H]1O[C@@](COC(C)=O)(O[C@H]2O[C@H](COC(C)=O)[C@@H](OC(C)=O)[C@H](OC(C)=O)[C@H]2OC(C)=O)[C@@H](OC(C)=O)[C@@H]1OC(C)=O`
Response line: inactive

Prompt line: Please state the recorded outcome for this compound: CC(C)CC(C)(O)C#CC(C)(O)CC(C)C (stereo unspecified)
Response line: inactive

Prompt line: Please state the recorded outcome for this compound: `C1=CCCC=CCCC=CCC1`
Response line: inactive

Prompt line: Please state the recorded outcome for this compound: `CCOC(=O)CC(CC(=O)OCC)(OC(C)=O)C(=O)OCC`
Response line: inactive

Prompt line: Please state the recorded outcome for this compound: `CCOCCOCCOCCO`
Response line: inactive

---

Assay Explanation: ATG_RORE_CIS: Attagene CIS-FACTORIAL HepG2 Assay for human RAR-related Orphan Receptor Element (RORE) (AID 2282959)
Settings: HepG2 Attagene cis-factorial RORE reporter, mRNA; actives raise or lower the signal
The source made the active and inactive calls. The calls were made as follows: active = hit-call score of the fitted dose curve at least 0.9, where 1 is the maximum; inactive = score below 0.9.
One label from this list, please: yes = active, no = inactive

Prompt line: Please state the recorded outcome for this compound: Fc1ccccc1[C@@H](F)COC1CCC(Nc2ncnc3[nH]ncc23)CC1 (stereo not given in full)
Response line: yes

---

Read-out: Pro-epidermal growth factor (Homo sapiens)
Assay Explanation: LTEA_HepaRG_EGF: Life Technologies and Expression Analysis (LTEA) Assay for Epidermal growth factor (EGF) using HepaRG (AID 2283489)
Settings: mRNA level, 48 h; actives raise or lower the signal
The source made the active and inactive calls. Rule for the calls: active = hit-call score of the fitted dose curve at least 0.9, where 1 is the maximum; inactive = score below 0.9.
One label from this list, please: active, inactive

Use the examples below as a reference point.
{"columns": ["Molecule", "Qualitative Label"],
 "data": [
  ["CNCc1ccc(NC(=O)c2c[nH]c3c2C(=O)CCC3)cc1", "inactive"],
  ["CCOC(=O)CC(CC(=O)OCC)(OC(C)=O)C(=O)OCC", "inactive"],
  ["O=C(O)c1cc(N=Nc2ccc(S(=O)(=O)Nc3ccccn3)cc2)ccc1O", "inactive"],
  ["CC/C(=C\\C(=N/O)C(N)=O)C(C)[N+](=O)[O-] (centres undefined)", "inactive"]
]}

Prompt line: Please state the recorded outcome for this molecule: `O=C(NS(=O)(=O)/C=C/c1ccccc1)c1ccc(F)cc1Cl`
Response line: inactive

Prompt line: Please state the recorded outcome for this molecule: `CC[C@H]1OC(=O)[C@H](C)[C@@H](O[C@H]2C[C@@](C)(OC)[C@@H](O)[C@H](C)O2)[C@H](C)[C@@H](O[C@@H]2O[C@H](C)C[C@H](N(C)C)[C@H]2O)[C@](C)(O)C[C@@H](C)C(=O)[C@H](C)[C@@H](O)[C@]1(C)O`
Response line: inactive

---

Read-out: CYP3A5 (gene 1577)
Assay Explanation: LTEA_HepaRG_CYP3A5: Life Technologies and Expression Analysis (LTEA) Assay for CYP3A5 using HepaRG (AID 2283493)
Settings: mRNA level, 48 h; actives raise or lower the signal
Calls of active or inactive are those of the source. Rule for the calls: active = hit-call score of the fitted dose curve at least 0.9, where 1 is the maximum; inactive = score below 0.9.
One label from this list, please: active, inactive

Use the examples below as a reference point.
{"columns": ["Compound", "Qualitative Label"],
 "data": [
  ["O=C(OC[C@H]1O[C@@H](OC(=O)c2cc(O)c(O)c(OC(=O)c3cc(O)c(O)c(O)c3)c2)[C@H](OC(=O)c2cc(O)c(O)c(OC(=O)c3cc(O)c(O)c(O)c3)c2)[C@@H](OC(=O)c2cc(O)c(O)c(OC(=O)c3cc(O)c(O)c(O)c3)c2)[C@@H]1OC(=O)c1cc(O)c(O)c(OC(=O)c2cc(O)c(O)c(O)c2)c1)c1cc(O)c(O)c(OC(=O)c2cc(O)c(O)c(O)c2)c1", "active"],
  ["O=c1n(CC2CO2)c(=O)n(CC2CO2)c(=O)n1CC1CO1 (stereo not drawn)", "inactive"],
  ["CC(C)(O)c1coc(S(=O)(=O)NC(=O)Nc2c3c(cc4c2CCC4)CCC3)c1", "inactive"],
  ["CC(=O)c1ccc2c(c1)[C@H](NC(=O)c1ccc(F)cc1)[C@@H](O)C(C)(C)O2", "inactive"]
]}

Prompt line: Please state the recorded outcome for this compound: `COCCOCCOCCOC`
Response line: inactive

Prompt line: Please state the recorded outcome for this compound: `COc1ccc2sc(C(=O)Nc3nnn[nH]3)c(OC(C)C)c2c1`
Response line: inactive

Prompt line: Please state the recorded outcome for this compound: `O=C(O)c1cc(N=Nc2ccc(S(=O)(=O)Nc3ccccn3)cc2)ccc1O`
Response line: inactive

Prompt line: Please state the recorded outcome for this compound: CCCCC(CC)COC(=O)CCCCCCCCC(=O)OCC(CC)CCCC (stereo not drawn)
Response line: inactive

---

Assay Explanation: APR_HepG2_MitoticArrest_72hr: Apredica 72-hour HepG2 Assay for Mitotic Arrest (AID 2282918)
Settings: high-content imaging, actives raise or lower the signal
The source made the active and inactive calls. The calls were made as follows: active = hit-call score of the fitted dose curve at least 0.9, where 1 is the maximum; inactive = score below 0.9.
One label from this list, please: y for active, n for inactive

Use the examples below as a reference point.
{"columns": ["Compound", "Qualitative Label"],
 "data": [
  ["O=C(OC[C@H]1O[C@@H](OC(=O)c2cc(O)c(O)c(OC(=O)c3cc(O)c(O)c(O)c3)c2)[C@H](OC(=O)c2cc(O)c(O)c(OC(=O)c3cc(O)c(O)c(O)c3)c2)[C@@H](OC(=O)c2cc(O)c(O)c(OC(=O)c3cc(O)c(O)c(O)c3)c2)[C@@H]1OC(=O)c1cc(O)c(O)c(OC(=O)c2cc(O)c(O)c(O)c2)c1)c1cc(O)c(O)c(OC(=O)c2cc(O)c(O)c(O)c2)c1", "n"],
  ["CCCCCCCCO", "n"],
  ["CCOCCO", "n"]
]}

Prompt line: Please state the recorded outcome for this compound: O=c1n(CC2CO2)c(=O)n(CC2CO2)c(=O)n1CC1CO1 (stereo unspecified)
Response line: y

Prompt line: Please state the recorded outcome for this compound: CC(O)CN(CCN(CC(C)O)CC(C)O)CC(C)O (stereo unspecified)
Response line: n

Prompt line: Please state the recorded outcome for this compound: `C1=CCCC=CCCC=CCC1`
Response line: n
